All values here come from patent US10214519B2.

- target-under-test: PI3Kβ (Homo sapiens (Human), UniProt P42338)
- Sequence (P42338 whole entry, canonical isoform): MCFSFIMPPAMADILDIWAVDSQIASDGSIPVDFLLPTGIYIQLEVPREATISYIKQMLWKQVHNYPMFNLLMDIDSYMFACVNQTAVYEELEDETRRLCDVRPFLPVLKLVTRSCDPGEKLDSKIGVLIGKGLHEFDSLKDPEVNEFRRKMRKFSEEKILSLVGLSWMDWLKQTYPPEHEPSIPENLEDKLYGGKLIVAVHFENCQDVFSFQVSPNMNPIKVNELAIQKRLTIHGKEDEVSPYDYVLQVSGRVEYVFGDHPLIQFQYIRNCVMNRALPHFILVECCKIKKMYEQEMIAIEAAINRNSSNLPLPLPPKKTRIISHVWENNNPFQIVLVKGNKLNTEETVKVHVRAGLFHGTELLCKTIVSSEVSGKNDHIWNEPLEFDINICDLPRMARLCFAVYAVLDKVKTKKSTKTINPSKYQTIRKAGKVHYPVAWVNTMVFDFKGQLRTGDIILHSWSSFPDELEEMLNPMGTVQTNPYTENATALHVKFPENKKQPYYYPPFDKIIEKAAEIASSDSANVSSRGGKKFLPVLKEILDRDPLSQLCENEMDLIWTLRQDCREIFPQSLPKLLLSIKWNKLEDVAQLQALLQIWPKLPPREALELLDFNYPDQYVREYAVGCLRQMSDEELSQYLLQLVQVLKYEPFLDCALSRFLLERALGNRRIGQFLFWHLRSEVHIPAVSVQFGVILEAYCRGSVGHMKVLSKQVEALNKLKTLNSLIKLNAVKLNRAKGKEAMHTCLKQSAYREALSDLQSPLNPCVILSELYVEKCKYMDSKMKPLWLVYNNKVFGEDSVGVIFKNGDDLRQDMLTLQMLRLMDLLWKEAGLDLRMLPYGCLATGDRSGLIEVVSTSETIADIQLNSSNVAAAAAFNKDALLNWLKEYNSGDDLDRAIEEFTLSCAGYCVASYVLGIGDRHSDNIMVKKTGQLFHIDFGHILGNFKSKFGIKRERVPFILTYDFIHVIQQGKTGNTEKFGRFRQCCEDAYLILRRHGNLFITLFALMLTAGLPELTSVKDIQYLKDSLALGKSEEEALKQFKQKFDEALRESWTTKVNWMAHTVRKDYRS
- Sequence (P27986 whole entry partner, canonical isoform): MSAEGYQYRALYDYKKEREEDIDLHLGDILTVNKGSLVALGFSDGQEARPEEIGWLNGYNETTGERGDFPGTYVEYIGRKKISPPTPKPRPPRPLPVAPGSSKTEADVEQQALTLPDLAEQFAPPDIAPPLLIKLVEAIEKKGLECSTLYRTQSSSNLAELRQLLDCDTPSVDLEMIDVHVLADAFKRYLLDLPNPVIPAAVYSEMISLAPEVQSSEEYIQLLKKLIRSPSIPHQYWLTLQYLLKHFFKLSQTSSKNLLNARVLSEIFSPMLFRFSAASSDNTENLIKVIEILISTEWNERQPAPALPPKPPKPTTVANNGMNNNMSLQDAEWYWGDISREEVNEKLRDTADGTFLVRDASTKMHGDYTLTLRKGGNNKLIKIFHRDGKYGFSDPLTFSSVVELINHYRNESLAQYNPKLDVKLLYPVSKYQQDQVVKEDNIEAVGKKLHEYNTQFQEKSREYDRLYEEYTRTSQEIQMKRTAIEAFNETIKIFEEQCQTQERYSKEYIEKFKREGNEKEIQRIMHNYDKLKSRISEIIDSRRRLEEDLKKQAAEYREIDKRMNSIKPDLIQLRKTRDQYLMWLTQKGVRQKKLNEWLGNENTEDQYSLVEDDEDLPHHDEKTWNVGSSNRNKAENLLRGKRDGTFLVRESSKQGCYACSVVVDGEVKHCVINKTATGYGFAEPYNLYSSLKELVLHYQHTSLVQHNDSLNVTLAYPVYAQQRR
- measurement-notes: PI3K isoform TR-FRET enzymatic assay (PI3Kβ)
- experimental-parameters: 2× Km ATP, 30 minutes at 25° C.
Kindly apply the following: Yes if IC50 is less than 30 nM, No in every other case.

• Cc1nc2c(-c3ncco3)cc(N3CCOCC3)cc2n1-c1ccnc2c(F)cccc12 (atropisomer, axis not shown) [Example 340] = No
• Cc1nc2c(-c3cnc[nH]3)cc(N3CCOCC3)cc2n1-c1ccnc2c(Cl)cccc12 = Yes
• Cc1nc2c(-c3nnc[nH]3)cc(N3CCOCC3)cc2n1-c1cc(-c2cscn2)nc2ccccc12 = Yes
• Cc1nnc(-c2cc(N3CCOCC3)cc3c2nc(C)n3-c2c(Cl)cnc3c(Cl)cccc23)[nH]1 [Example 157] = No
• Cc1n[nH]c(-c2cc(N3CCOCC3)cc3c2nc(C)n3-c2c(C)cnc3ccccc23)n1 = No
• Cc1nnc(-c2cc(N3CCOCC3)cc3c2nc(C)n3-c2c(F)cnc3ccccc23)[nH]1 = No
• Cc1csc(-c2cc(N3CCOCC3)cc3c2nc(C)n3-c2ccnc3c(Cl)cccc23)n1 = Yes
• Cc1cc(-n2c(C)nc3c(-c4nnc[nH]4)cc(N4CCOCC4)cc32)c2ccccc2n1 = Yes
• Cc1cccc2nccc(-n3c(C)nc4c(-c5nnc[nH]5)cc(N5CCOCC5)cc43)c12 (atropisomer, axis not shown) [Compound 362] = Yes
• CCc1c(C)nc2ccccc2c1-n1c(C)nc2c(-c3nnc[nH]3)cc(N3CCOCC3)cc21 = Yes
• CCCc1nc2c(-c3ncco3)cc(N3CCOCC3)cc2n1-c1ccnc2c(Cl)cc(F)cc12 = Yes
• Cc1nc2c(-c3nnc[nH]3)cc(N3CCOCC3)cc2n1-c1ccnc2c(F)ccc(Cl)c12 (atropisomer, axis not shown) [Compound 345] = No
• Fc1ccc(F)c2c(-n3c(C4CC4)nc4c(-c5cnc(Cl)[nH]5)cc(N5CCOCC5)cc43)ccnc12 (atropisomer, axis not shown) [Compound 342] = No
• Cc1nc2c(-c3cccs3)cc(N3CCOCC3)cc2n1-c1ccnc2c(Cl)cccc12 = No
• Cc1nc2c(-c3cnc(Cl)[nH]3)cc(N3CCOCC3)cc2n1-c1ccnc2c(F)cccc12 = Yes

###

- target-under-test: UniProt P42338
- measurement-notes: PI3K isoform TR-FRET enzymatic assay (PI3Kβ)
- experimental-parameters: 2× Km ATP, 30 minutes at 25° C.
pIC50: −log10 of the molar value.
measurement-kind: pIC50

- CCc1nc2c(-c3ncc[nH]3)cc(N3CCOCC3)cc2n1-c1ccnc2c(F)ccc(F)c12 (atropisomer, axis not shown) [Compound 370]: 7.89
- Cc1nc2c(-c3nnc[nH]3)cc(N3CCOCC3)cc2n1-c1ccnc2c(Cl)ccc(F)c12: 7.85
- Cc1nc2c(-c3cnc[nH]3)cc(N3CCOCC3)cc2n1-c1ccnc2c(F)cccc12: 7.85
- Cc1nc2c(-c3cscn3)cc(N3CCOCC3)cc2n1-c1ccnc2ccccc12: 6.34
- Cc1nc2c(-c3ccc(C#N)s3)cc(N3CCOCC3)cc2n1-c1ccnc2c(Cl)cccc12: 5.59
- Cc1nc2c(-c3cn(C)cn3)cc(N3CCOCC3)cc2n1-c1ccnc2c(Cl)cccc12: 6.92
- Cc1nnc(-c2cc(N3CCOCC3)cc3c2nc(-c2ccncc2)n3-c2ccnc3c(Cl)cccc23)[nH]1: 5.66
